system: Klebsiella pneumoniae; test: Antibacterial activity against Klebsiella pneumoniae KCTC 2690; assay type: functional
Below, each entry is listed with its recorded MIC.
OBSERVABLE: MIC

CCCCCCCCC/C=C\C/C=C\CCC[C@H](C)[C@H]1OC[C@H](CO)O1 :: > 128 µg/mL
CCCCCCCCCCC/C=C\CCC[C@H](C)[C@H]1OC[C@H](CO)O1 :: > 128 µg/mL
CCCCCCCCCC/C=C\C/C=C\CCC[C@H](C)[C@H]1OC[C@H](CO)O1 :: > 128 µg/mL
CCCCCCCCCCC/C=C\C=C\C(O)CC[C@H](C)[C@H]1OC[C@H](CO)O1 (stereo not given in full) :: > 128 µg/mL
CCCCCCCC/C=C\C/C=C\CCC[C@H](C)[C@H]1OC[C@H](CO)O1 :: > 128 µg/mL
